- TESTED_ON: T1, labeled peptide-MHC (HLA-A*02:01) tetramer (…-HLA-A*02:01 tetramer) (human)
- T1 construct: Labeled tetramer used for flow cytometry staining; also called pMHC; pMHC tetramer
- MEASUREMENT_NOTES: tetramer staining of sorted T cell clones, flow cytometry
MEASURED_ENDPOINT: binding result

BINDER	MEASURED_RESULT
nwTCR-2383 (TCR, V domains shown, TCR on T cells) V domain 1: GIQVEQSPPDLILQEGANSTLRCNFSDSVNNLQWFHQNPWGQLINLFYIPSGTKQNGRLSATTVATERYSLLYISSSQTTDSGVYFCAVMPSGTYKYIFGTGTRLKVLA V domain 2: EAQVTQNPRYLITVTGKKLTVTCSQNMNHEYMSWYRQDPGLGLRQIYYSMNVEVTDKGDVPEGYKVSRKEKRNFPLILESPSPNQTSLYFCASSPSSGYNEQFFGPGTRLTVLE	binds
nwTCR-2418 (TCR, V domains shown, TCR on T cells) V domain 1: DQQVKQNSPSLSVQEGRISILNCDYTNSMFDYFLWYKKYPAEGPTFLISISSIKDKNEDGRFTVFLNKSAKHLSLHIVPSQPGDSAVYFCAASGVRGQNFVFGPGTRLSVLP V domain 2: DSGVTQTPKHLITATGQRVTLRCSPRSGDLSVYWYQQSLDQGLQFLIQYYNGEERAKGNILERFSAQQFPDLHSELNLSSLELGDSALYFCASSPWLAGGREQYFGPGTRLTVTE	binds
